Data credit: ChEMBL document CHEMBL3988442

Molecular target: Methionyl-tRNA synthetase, putative (Leishmania donovani (strain BPK282A1))
Experiment: Leishmania donovani Methionine tRNA synthetase (LdMetRS):v6. Primary screen assay
Type: functional
Set-up: conc 80 nM, time 150 minutes
Among all 68,000 compounds or so, about 25 (0.04%) showed an effect of 50% or more. The sample holds strong results, similar compounds and a random draw of the others, so the mix is not that of the screen.
measure: inhibition
Respond with the figure and its unit, in that order.

Give me measured inhibition, please, for this molecule: CS(=O)(=O)NC[C@]12COC[C@H]1CN(Cc1ccc3c(c1)OCO3)C2
15.2%

Give me measured inhibition, please, for this molecule: COCC(=O)N1C[C@@H]2CCCO[C@@H]2[C@H](N(C)Cc2ccco2)C1
-6.25%

Give me measured inhibition, please, for this molecule: N#Cc1ccccc1CN1C[C@@H]2CC[C@H](C1)N(CC1CCC1)C2=O
19.4%

Give me measured inhibition, please, for this molecule: O=C(c1cc(F)cc(Cl)c1)N1CCN(CCO)[C@@H]2CS(=O)(=O)C[C@@H]21
3.31%

Give me measured inhibition, please, for this molecule: CCc1[nH]c2c(CNc3cncc(C(=O)N(C)C)n3)cc(F)cc2c1C
28.6%

***
Give me measured inhibition, please, for this molecule: COC(=O)CCNC(=O)c1cccc(C(=O)N(C)c2ccccc2)c1
31.7%

Give me measured inhibition, please, for this molecule: c1ccc(N(CCn2cncn2)CC2CC2)cc1
11%

Give me measured inhibition, please, for this molecule: CN(C)C(=O)N1CCN(c2ccc3ccc(C(=O)NC4CC4)cn23)CC1
20.2%

Give me measured inhibition, please, for this molecule: O=C(C[C@@H]1COC[C@H]2CN(Cc3ccc(F)cc3)C[C@@H]12)N1CCCCO1
12.9%

Give me measured inhibition, please, for this molecule: CNc1ccnc(N2C[C@@H]3CC[C@H](C2)N(CCOC)C3=O)n1
-4.82%

Give me measured inhibition, please, for this molecule: Cc1noc([C@@]23CCO[C@@H]2CCN(C(=O)c2cc(C)c(C)s2)C3)n1
8.14%

Give me measured inhibition, please, for this molecule: CNS(=O)(=O)c1ccc(CNC(=O)C2CCCO2)cc1 (centres undefined)
-0.269%

Give me measured inhibition, please, for this molecule: Cc1oncc1C(=O)N1CC[C@H]2[C@@H]1CCC(=O)N2c1cccnc1
17.6%

Give me measured inhibition, please, for this molecule: CN1CCCC[C@@H]2[C@H]1[C@@H](c1ccccc1)CCN2C(=O)c1ccncc1
12.5%

Give me measured inhibition, please, for this molecule: COc1cc(CN2CCN(CC3CC3)[C@@H]3CS(=O)(=O)C[C@@H]32)cc(OC)c1
7.26%

Give me measured inhibition, please, for this molecule: COCCN1C[C@H]2CC[C@@H]1CN(C(=O)CCn1cc(Cl)cn1)C2
9.25%

Give me measured inhibition, please, for this molecule: O=C1N(Cc2ccccc2)C[C@H]2CN(Cc3ccccc3Cl)CCN12
12.1%

Give me measured inhibition, please, for this molecule: Cc1noc(C)c1CN1CC[C@H]2OCC[C@@H](C(=O)NCC3CC3)[C@H]2C1
14.8%

Give me measured inhibition, please, for this molecule: O=C(N[C@@H]1CN(Cc2cccs2)[C@@H]2CCCO[C@@H]21)c1cscn1
11.8%

Give me measured inhibition, please, for this molecule: N#Cc1cccc(CN2C[C@H](OCC3CCOCC3)[C@H]3COC[C@H]32)c1
14.8%

Give me measured inhibition, please, for this molecule: CC(C)c1nc(N2CCC(N3CCSCC3)CC2)c2cnn(C)c2n1
12.3%

Give me measured inhibition, please, for this molecule: CC(C)c1nc(N2CCC(N3CCCCCC3)CC2)c2cnn(C)c2n1
56.4%

Give me measured inhibition, please, for this molecule: OCC1N(Cc2ccc(F)cc2)[C@H]2CC[C@]1(O)CC2 (some centres undefined)
12.3%

Give me measured inhibition, please, for this molecule: CNC(=O)[C@H]1C[C@@H]2CN(Cc3ccccc3)C[C@H]1O2
15.9%

Give me measured inhibition, please, for this molecule: CC1=N[C@@]2(CC[C@@H]3CN(CC4CC4)C[C@@H]32)C(=O)N1CC(C)C
14.9%

Give me measured inhibition, please, for this molecule: CCN(CC)S(=O)(=O)CCNc1nnc(C(C)C)s1
-0.621%

----------
inhibition by entry:
Biological target: Methionyl-tRNA synthetase, putative (Leishmania donovani (strain BPK282A1)) (UniProt E9BF75)
Assay: Leishmania donovani Methionine tRNA synthetase (LdMetRS):v6. Primary screen assay
Type: functional
Set-up: conc 80 nM, time 150 minutes
About 25 (0.04%) of roughly 68,000 compounds showed an effect of 50% or more. The entries come from a sample that favours strong results as a whole.

Answered cases to consult:
Give me measured inhibition, please, for this molecule: Cc1cnn(CCNCc2c(C)nn(CCO)c2C)c1
105%

Give me measured inhibition, please, for this molecule: CCN1C[C@H]2[C@@H](C1)N(S(=O)(=O)c1ccccc1F)CC[C@H]2OC
18.4%

Give me measured inhibition, please, for this molecule: CC(C)CN1Cc2nc(N3CCC(O)CC3)ncc2C1=O
7.08%

Give me measured inhibition, please, for this molecule: O=C(NC1CC1)[C@@H]1CCO[C@@H]2CCN(CC3CCC3)C[C@H]21
16.2%

Give me measured inhibition, please, for this molecule: Cc1occc1C(=O)N1C[C@@H]2OCCN(c3ncccn3)[C@@H]2C1
9.59%

***
Give me measured inhibition, please, for this molecule: Cc1cnn(CCNCc2ccccc2F)c1
13%

Give me measured inhibition, please, for this molecule: Cc1oncc1C(=O)N1CC[C@H]2[C@@H]1CCC(=O)N2CC1CCOCC1
13.7%

Give me measured inhibition, please, for this molecule: CC(=O)N1CC[C@@]2(C(=O)Nc3ccccc3)CCN(S(C)(=O)=O)CC[C@@H]12
8.93%

Give me measured inhibition, please, for this molecule: NCC1CCN(C2CCN(c3ccc(-c4ccco4)cc3)CC2)C1 (centres undefined)
52.7%

----------
Molecular target: Methionyl-tRNA synthetase, putative (Leishmania donovani (strain BPK282A1)) (UniProt E9BF75)
Sequence (whole entry): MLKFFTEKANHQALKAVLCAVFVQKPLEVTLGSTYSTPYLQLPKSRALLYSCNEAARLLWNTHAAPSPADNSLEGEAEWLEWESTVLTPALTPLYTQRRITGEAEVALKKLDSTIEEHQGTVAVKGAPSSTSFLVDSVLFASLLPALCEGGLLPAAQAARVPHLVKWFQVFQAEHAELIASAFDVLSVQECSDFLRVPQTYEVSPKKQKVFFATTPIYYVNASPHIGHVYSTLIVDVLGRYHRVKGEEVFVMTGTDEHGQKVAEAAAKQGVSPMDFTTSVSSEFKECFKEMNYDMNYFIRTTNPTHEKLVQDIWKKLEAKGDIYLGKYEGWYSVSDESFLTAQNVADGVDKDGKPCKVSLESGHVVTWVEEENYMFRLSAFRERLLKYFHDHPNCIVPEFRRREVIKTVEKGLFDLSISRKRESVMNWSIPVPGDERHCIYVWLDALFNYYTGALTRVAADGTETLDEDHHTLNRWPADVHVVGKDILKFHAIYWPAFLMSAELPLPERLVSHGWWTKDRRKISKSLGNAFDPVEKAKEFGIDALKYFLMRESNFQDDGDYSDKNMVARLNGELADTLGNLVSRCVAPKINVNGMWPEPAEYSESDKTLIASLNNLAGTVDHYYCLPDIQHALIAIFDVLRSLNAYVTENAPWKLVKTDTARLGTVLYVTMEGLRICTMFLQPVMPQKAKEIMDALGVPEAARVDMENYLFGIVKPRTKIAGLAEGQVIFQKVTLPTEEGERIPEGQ
Assay: Leishmania donovani Methionine tRNA synthetase (LdMetRS):v6. Primary screen assay
Type: functional
Design: conc 80 nM, time 150 minutes
Screen size: about 68,000 compounds; about 25 (0.04%) showed an effect of 50% or more. Only a selection was taken, and strong results are over-represented in it overall.
inhibition by entry:
The answer is to be given in %; state only the numeric part.

Answered cases to consult:
Give me measured inhibition, please, for this compound: O=C([C@@H]1COC[C@H]2CN(C3CCCCC3)C[C@H]21)N1CCOCC1
14.6

Give me measured inhibition, please, for this compound: Cn1cc(CN2C[C@@H](N3CCCC3=O)[C@H]3OCCC[C@H]32)cn1
6.57

From here, focus on the item given below.
Give me measured inhibition, please, for this compound: O=C(N1CCCC(n2cncn2)C1)C1(c2ccc(Cl)cc2)CCC1 (stereo not drawn)
15.4

----------
Biological target: Methionyl-tRNA synthetase, putative (Leishmania donovani (strain BPK282A1)) (UniProt E9BF75)
Sequence (whole entry): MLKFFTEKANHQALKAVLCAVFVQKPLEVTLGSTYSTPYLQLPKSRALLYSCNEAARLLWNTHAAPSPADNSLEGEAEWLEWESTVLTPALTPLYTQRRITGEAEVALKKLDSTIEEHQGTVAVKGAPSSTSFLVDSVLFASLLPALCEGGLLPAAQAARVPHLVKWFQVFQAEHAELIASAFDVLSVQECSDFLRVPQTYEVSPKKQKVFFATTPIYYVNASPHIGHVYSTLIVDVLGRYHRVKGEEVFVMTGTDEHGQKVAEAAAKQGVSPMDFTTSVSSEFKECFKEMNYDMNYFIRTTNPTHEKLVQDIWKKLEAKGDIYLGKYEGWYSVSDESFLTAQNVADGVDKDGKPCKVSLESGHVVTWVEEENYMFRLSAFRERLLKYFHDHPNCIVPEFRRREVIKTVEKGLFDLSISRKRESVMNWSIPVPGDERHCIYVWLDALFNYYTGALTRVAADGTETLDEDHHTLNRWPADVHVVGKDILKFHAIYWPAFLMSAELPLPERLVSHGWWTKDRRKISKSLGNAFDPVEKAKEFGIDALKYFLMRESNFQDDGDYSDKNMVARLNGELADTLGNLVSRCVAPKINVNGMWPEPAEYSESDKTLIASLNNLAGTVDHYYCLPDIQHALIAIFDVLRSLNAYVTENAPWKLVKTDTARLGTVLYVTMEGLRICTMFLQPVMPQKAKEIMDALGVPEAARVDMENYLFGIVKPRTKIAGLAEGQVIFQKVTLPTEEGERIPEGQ
Assay: Leishmania donovani Methionine tRNA synthetase (LdMetRS):v6. Primary screen assay
Type: functional
Design: conc 80 nM, time 150 minutes
Among all 68,000 compounds or so, about 25 (0.04%) showed an effect of 50% or more. The entries come from a sample that favours strong results as a whole.
inhibition by entry:

Give me measured inhibition, please, for this compound: CCc1[nH]c2c(CNc3cncc(C(=O)OC)n3)cc(C)cc2c1C
123%

Give me measured inhibition, please, for this compound: Cc1ccc(CN2CCN(CC3CC3)[C@@H]3CS(=O)(=O)C[C@@H]32)cc1C
15.6%

Give me measured inhibition, please, for this compound: CCCN1C[C@H]2CC[C@@H]1CN(Cc1cccc(O)c1)C2
3.78%

Give me measured inhibition, please, for this compound: CC(C)NC(=O)[C@H]1C[C@@H]2[C@@H](C1)OCCN2Cc1ccsc1
10.1%

Give me measured inhibition, please, for this compound: Cc1nc([C@H]2C[C@@H]3CCN(C(=O)c4ccnnc4)C[C@H]3O2)sc1C
17%

Give me measured inhibition, please, for this compound: CCc1[nH]c2c(CNc3cncc(C(=O)N(C)C)n3)cc(C)cc2c1C
32.3%

Give me measured inhibition, please, for this compound: Cc1oc(C(C)C)cc1C(=O)N1C[C@H]2CC[C@@H]1CN(c1ncccn1)C2
7.9%

From here, focus on the item given below.
Give me measured inhibition, please, for this compound: CS(=O)(=O)N1CC[C@H]2O[C@H](C(=O)NCCc3ccccn3)CC[C@H]21
7.41%
